Target: Focal Adhesion Kinase (FAK) (Homo sapiens)
Sequence (Q05397 384-706): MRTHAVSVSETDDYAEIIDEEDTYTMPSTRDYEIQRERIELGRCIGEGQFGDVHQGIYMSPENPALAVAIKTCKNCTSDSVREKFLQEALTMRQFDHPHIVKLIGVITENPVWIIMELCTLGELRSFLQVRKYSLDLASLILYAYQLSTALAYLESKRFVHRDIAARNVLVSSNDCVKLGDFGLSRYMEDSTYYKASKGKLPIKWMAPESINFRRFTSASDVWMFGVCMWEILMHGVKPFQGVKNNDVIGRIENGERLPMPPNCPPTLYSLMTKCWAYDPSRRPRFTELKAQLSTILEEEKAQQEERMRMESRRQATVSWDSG
Assay: FAK assay system (Focal Adhesion Kinase inhibition)
Format: biochemical
Settings: read-out: FAK IC50
Measurement Type: IC50 (nM)

1: CNC(=O)c1ccccc1Nc1nc(Nc2ccc(N3CCC(O)CC3)cc2OC)ncc1Cl
2: CNS(=O)(=O)c1ccccc1Nc1nc(Nc2ccc(C)cc2OC)ncc1Br
3: CNS(=O)(=O)c1ccccc1Nc1nc(Nc2cc(-c3ccccc3)ccc2OC)ncc1Br
// TODO: order the 3 molecules above by IC50, descending Answer format: the labels, in the requested order. 3, 2, 1

====

Molecular target: IGF-IR (Homo sapiens)
Sequence (P08069 31-1367): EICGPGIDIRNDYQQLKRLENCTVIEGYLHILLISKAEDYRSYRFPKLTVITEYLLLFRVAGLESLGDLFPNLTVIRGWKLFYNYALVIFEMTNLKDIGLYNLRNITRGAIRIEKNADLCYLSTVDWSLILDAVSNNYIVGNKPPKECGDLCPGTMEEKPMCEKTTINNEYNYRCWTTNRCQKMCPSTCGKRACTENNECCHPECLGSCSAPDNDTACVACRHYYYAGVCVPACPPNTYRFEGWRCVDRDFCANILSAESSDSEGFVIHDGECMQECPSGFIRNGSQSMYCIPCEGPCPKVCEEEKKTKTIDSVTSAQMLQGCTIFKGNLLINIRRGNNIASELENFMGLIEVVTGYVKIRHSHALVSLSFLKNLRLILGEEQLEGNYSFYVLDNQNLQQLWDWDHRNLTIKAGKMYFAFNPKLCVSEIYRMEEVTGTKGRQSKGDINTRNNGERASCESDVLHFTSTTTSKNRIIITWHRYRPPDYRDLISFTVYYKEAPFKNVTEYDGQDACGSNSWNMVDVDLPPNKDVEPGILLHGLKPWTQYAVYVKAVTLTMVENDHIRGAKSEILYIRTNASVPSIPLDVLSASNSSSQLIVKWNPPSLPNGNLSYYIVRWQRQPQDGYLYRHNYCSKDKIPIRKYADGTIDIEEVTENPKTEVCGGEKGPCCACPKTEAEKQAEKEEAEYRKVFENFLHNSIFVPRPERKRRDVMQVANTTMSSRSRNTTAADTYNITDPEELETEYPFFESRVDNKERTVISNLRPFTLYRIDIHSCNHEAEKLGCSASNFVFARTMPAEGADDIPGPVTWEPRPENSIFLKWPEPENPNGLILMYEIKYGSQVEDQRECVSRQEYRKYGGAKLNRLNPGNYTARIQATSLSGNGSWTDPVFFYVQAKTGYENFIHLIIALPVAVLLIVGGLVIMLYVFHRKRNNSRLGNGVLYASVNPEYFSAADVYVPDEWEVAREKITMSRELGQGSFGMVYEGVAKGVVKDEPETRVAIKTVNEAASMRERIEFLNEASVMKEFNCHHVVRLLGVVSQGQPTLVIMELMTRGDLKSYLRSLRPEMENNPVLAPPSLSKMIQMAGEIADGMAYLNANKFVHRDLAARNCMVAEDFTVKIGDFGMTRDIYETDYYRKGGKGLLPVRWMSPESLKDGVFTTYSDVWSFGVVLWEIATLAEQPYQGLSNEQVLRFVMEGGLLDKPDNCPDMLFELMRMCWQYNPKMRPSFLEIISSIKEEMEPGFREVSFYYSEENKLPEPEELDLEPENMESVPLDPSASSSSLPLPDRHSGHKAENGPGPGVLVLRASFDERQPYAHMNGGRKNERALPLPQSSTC
Assay: Cellular Capture ELISA of IGF-I induced autophosphorylation of the IGF-IR
Conditions: read-out: IGF-1R IC50
Description: In this assay the activity of the compounds of the invention against Insulin-like growth factor I (IGF-I) induced autophosphorylation of the IGF-IR is determined.
Measurement Type: IC50 (nM)

[
  {
    "Compound": "CNS(=O)(=O)c1ccccc1Nc1nc(Nc2ccc(-n3ccnc3C)cc2OC)ncc1Br",
    "Value": 680
  },
  {
    "Compound": "CNS(=O)(=O)c1ccccc1Nc1nc(Nc2cccc3[nH]ccc23)ncc1Br",
    "Value": 200
  },
  {
    "Compound": "COc1cc(N2CCOCC2)ccc1Nc1ncc(Br)c(Nc2ccccc2S(=O)(=O)N(C)C)n1",
    "Value": 200
  }
]

P: CNS(=O)(=O)c1ccccc1Nc1nc(Nc2cc(-c3cccnc3)ccc2OC)ncc1Br
Q: CNS(=O)(=O)c1ccccc1Nc1nc(Nc2cc(OC)ccc2OC)ncc1Br
// compare measured IC50 between P and Q ; output the lower one Field: selected label. Fill in the label of the entry you choose. P
